# protocolSummary: Liver Microsome Stability Assay (mouse)
# runConditions: mouse liver microsomes, with NADPH, 1.0 uM compound
Param label: returns Satisfied when Liver Microsome Stability (Multiple Species): Mouse - % Remaining after 30 min w/NADPH < 3%, returns Not satisfied otherwise, including exact equality.

// below: answered compounds
Does the reported Liver Microsome Stability (Multiple Species): Mouse - % Remaining after 30 min w/NADPH of the following compound sit strictly below 3%? O=C(NC1=NC(CCc2ccccc2)CS1)c1cccn1Cc1ccncc1 (stereo not shown) [Compound E50]
Satisfied

Then CC(=O)N[C@H](C)c1ccc(N2CCC[C@@H]2c2csc(NC(=O)c3cccn3Cc3ccncc3)n2)cc1 [Compound A66] ?
Not satisfied

Then Cc1cccc(Cn2cccc2C(=O)Nc2nc([C@H]3CCCN3c3ccccc3)cs2)c1 [Compound C120] ?
Not satisfied

More entries:
Does the reported Liver Microsome Stability (Multiple Species): Mouse - % Remaining after 30 min w/NADPH of the following compound sit strictly below 3%? O=C(Nc1nc(CCc2ccc(OC(F)(F)F)cn2)cs1)c1cccn1Cc1ccncc1 [Compound E7]
Satisfied

Then N#CC1CC(Cn2cccc2C(=O)Nc2nc([C@H]3CCCN3c3ccccc3)cs2)C1 (stereo partly shown) [Compound C106] ?
Not satisfied

----------
# System: multiple myeloma cell line NCI-H929
# protocolSummary: H929 Cell Viability Assay
# Assay type: cell-based, human
# runConditions: Homo sapiens, NCI-H929, 48 h, NCI-H929 cells, Celltiter-Glo
endpointName: EC50

What does the record list as EC50 for CC(C)c1cccc2nc(/C=C/c3csc(NC(=O)c4cccn4Cc4ccncc4)n3)cn12 [Compound B76] ?
> 25 µM

More entries:
What does the record list as EC50 for O=C(Nc1nc(/C=C/c2cn(C3CCCCC3)cn2)cs1)c1cccn1Cc1ccnc(F)c1 [Compound B55] ?
> 20.8 µM

Then O=C(O)c1ccc(N2CCC[C@@H]2c2csc(NC(=O)c3cccn3Cc3ccncc3)n2)cc1 [Compound A13] ?
> 25 µM

Then C#CCCn1cccc1C(=O)Nc1nc([C@H]2CCCN2c2ccccc2)cs1 [Compound C62] ?
> 25 µM

Then Cc1nc(CCc2csc(NC(=O)c3cccn3Cc3ccncc3)n2)co1 [Compound E4] ?
> 25 µM

Then N#CC1CC(Cn2cccc2C(=O)Nc2nc([C@H]3CCCN3c3ccccc3)cs2)C1 (stereo partly shown) [Compound C106] ?
> 25 µM

Then CO[C@H](CC#N)Cn1cccc1C(=O)Nc1nc([C@H]2CCCN2c2ccccc2)cs1 [Compound C108] ?
> 23.8 µM

----------
Recorded pEC50, one value per entry.
# System: multiple myeloma cell line NCI-H929
# protocolSummary: H929 Cell Viability Assay
# Assay type: cell-based, human
# runConditions: Homo sapiens, NCI-H929, 48 h, NCI-H929 cells, Celltiter-Glo
pEC50: −log10 of the molar value.

Lookup: pEC50 / multiple myeloma cell line NCI-H929 / "O=C(Nc1nc([C@H]2CCCN2c2ccccc2)cs1)c1cccn1CC1COC1"
< 4.60

Then "CCc1cc(/C=C/c2csc(NC(=O)c3cccn3Cc3ccnc(F)c3)n2)no1" ?
< 4.60

Switching to the query record.
Lookup: pEC50 / multiple myeloma cell line NCI-H929 / "CC(C)c1cc(/C=C/c2csc(NC(=O)c3cccn3Cc3ccnc(F)c3)n2)n(C)n1"
< 4.60
